Assay: acute toxicity (LD50) by subcutaneous injection of rats
Conditions: rat, in vivo, sc
recorded.endpoint: LD50

Record request: LD50 value, item O=Cc1ccccc1
5000 mg/kg

* * *

Assay: in vivo
Settings: rat, sc
recorded.endpoint: LD50 (mg/kg)
// units = mg/kg; emit number, no label

Record request: LD50 value, item OC1O[C@@H]2COC(c3ccccc3)O[C@H]2[C@H](O)[C@H]1O (stereo partly shown)
4000
